assayed.system: human RORγt LBD (Homo sapiens (Human), UniProt P51449)
Sequence (P51449 258-518): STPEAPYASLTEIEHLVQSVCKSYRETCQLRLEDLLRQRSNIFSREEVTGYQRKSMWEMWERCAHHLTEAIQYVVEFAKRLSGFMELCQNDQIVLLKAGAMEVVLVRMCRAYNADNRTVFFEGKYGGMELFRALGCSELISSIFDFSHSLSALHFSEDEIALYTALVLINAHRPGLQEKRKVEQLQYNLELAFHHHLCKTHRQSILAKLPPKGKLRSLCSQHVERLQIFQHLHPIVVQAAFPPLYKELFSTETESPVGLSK
run.description: RORγt reporter assay (GAL4-RORγt LBD luciferase in HEK293T cells)
Type: cell-based
condition.summary: HEK293T cells, 24 hours compound treatment
measured.metric: log10(IC50) (log10 of the value in µM)
Note: values are log10 of IC50 expressed in µM.

What value of measured log10(IC50) is listed for Cn1cncc1C(O)(c1ccc2nc(Cl)c(Cc3ccc(-n4cccn4)cc3)c(Cl)c2c1)c1cncs1 (stereo not drawn) ?
-1.89

Which value of log10(IC50) has been reported for CCOc1nc2ccc(C(O)(c3ccc(OC)nc3)c3cncs3)cc2c(Cl)c1Cc1ccccc1 (stereo not drawn) in the records?
0.82

Which log10(IC50) value is on record for COc1nc2ccc(C(O)(c3sc(C)nc3C)c3cnnn3C)cc2c(Cl)c1Cc1ccc(C(F)(F)F)cc1 (single isomer, unassigned) [Example 79B] ?
-1.42

Field request: log10(IC50) | item: COc1nc2ccc(C(O)(c3ccccc3)C3CCN(C(C)=O)CC3)cc2c(Cl)c1Cc1ccc(-n2cccn2)cc1 (racemic) [Example 83A]
-1.41

Bench note: what log10(IC50) did Cc1cc(C(O)(c2ccc(C(F)(F)F)nc2)c2cncn2C)cc2c(C#N)c(Cc3ccc(-n4cccn4)cc3)c(C#N)nc12 (single isomer, unassigned) [Example 65C] show?
-1.34

GET /values?readout=log10(IC50)&item= COc1ccc(C(O)(c2cccnc2)c2ccc3nc(Cl)c(Cc4ccc(-n5cccn5)cc4)c(Cl)c3c2)cc1 (stereo not drawn)
-0.77

====

System: IL-17 production by CD4 T cells
run.description: Human Th17 assay (IL-17 production by CD4 T cells under Th17 differentiation)
Assay type: cell-based
condition.summary: Homo sapiens, CD4+ T, 72 h, human CD4+ T cells, IL-17 after 3 days; read-out: Human Th17 Assay, IC50 μM
Criterion: IC50 strictly under 0.1 µM. Met: met. Not met: not met.

Please review the entries below; each comes with its answer.
| molecule | class.name |
| --- | --- |
| COc1nc2ccc(C(N)(c3ccc(C)nc3C)c3cnnn3C)cc2c(Cl)c1Cc1ccc(C(F)(F)F)cc1 (single isomer, unassigned) [Example 87C] | met |
| Cn1cncc1C(O)(c1ccc2nc(Cl)c(Cc3ccc(-n4cccn4)cc3)c(Cl)c2c1)c1cncn1C | met |
| Cn1cncc1C(O)(c1ccc(C(F)(F)F)nc1)c1ccc2nc(C#N)c(Cc3ccc(-n4cccn4)cc3)c(C#N)c2c1 (single isomer, unassigned) [Example 72C] | met |
| Cc1cc(C(O)(c2ccc(Cl)cc2)c2cncn2C)cc2c(Cl)c(Cc3ccc(-n4cccn4)cc3)c(Cl)nc12 (stereo not drawn) | not met |

Here's the next entry for you.
Given OC(c1cccnc1)(c1ccc2nc(Cl)c(Cc3ccc(Cl)cc3)c(Cl)c2c1)c1cncs1 (stereo not drawn) , is recorded IC50 strictly lower than 0.1 µM?
met

====

assayed.system: human RORγt LBD (Homo sapiens (Human), UniProt P51449)
run.description: RORγt reporter assay (GAL4-RORγt LBD luciferase in HEK293T cells)
Type: cell-based
condition.summary: HEK-293T, read-out: RORγt reporter Assay, % inhibition @ 6 μM, HEK293T cells, 6 μM
measured.metric: inhibition at 6 µM (%)
Report the value in % with no unit label.

Recorded inhibition at 6 µM for Cn1cncc1C(O)(c1ccc(C(F)(F)F)nc1)c1ccc2nc(C#N)c(Cc3ccc(-n4cccn4)cc3)c(C#N)c2c1 (single isomer, unassigned) [Example 72C] with human RORγt LBD (Homo sapiens (Human), UniProt P51449), please?
100

What inhibition at 6 µM appears in the records for this compound with human RORγt LBD (Homo sapiens (Human), UniProt P51449)? CN(C)c1ccc(C(O)(c2ccc3nc(Cl)c(Cc4ccc(-n5cccn5)cc4)c(Cl)c3c2)c2cncn2C)cc1 (stereo not shown) [Example 25]
87

API: value(readout= inhibition at 6 µM, system= human RORγt LBD (Homo sapiens (Human), UniProt P51449), query= COc1nc2ccc(C(O)(c3ccc(C(F)(F)F)nc3)c3cncn3C)cc2c(Cl)c1Cc1ccc(C(F)(F)F)nc1 (single isomer, unassigned) [Example 94B] )
96

Report inhibition at 6 µM for Cn1cncc1C(O)(c1ccc(Cl)cc1)c1ccc2nc(Cl)c(Cc3ccccc3)c(Cl)c2c1 (stereo not shown) [Example 1] tested on human RORγt LBD (Homo sapiens (Human), UniProt P51449).
72

====

assayed.system: UniProtKB P51449
run.description: RORγt reporter assay (GAL4-RORγt LBD luciferase in HEK293T cells)
Type: cell-based
condition.summary: HEK293T cells, 6 μM
Quick list: RORγt reporter Assay, % inhibition @ 6 μM per entry.

The cases that follow already have their RORγt reporter Assay, % inhibition @ 6 μM on record.
| molecule | assayed.system | result.value |
| --- | --- | --- |
| Cc1ccc(C(O)(c2ccc3nc(C#N)c(Cc4ccc(C(F)(F)F)cc4)c(C#N)c3c2)c2cnnn2C)c(C)n1 (single isomer, unassigned) [Example 88C] | UniProtKB P51449 | 95% |
| COc1nc2ccc(C(O)(c3ccc(C(F)(F)F)nc3)c3cncn3C)cc2c(C#N)c1Cc1ccc(-n2cccn2)cc1 (single isomer, unassigned) [Example 73C] | UniProtKB P51449 | 99% |
| COc1nc2ccc(C(O)(c3ccc(F)cc3)c3cncn3C)cc2c(Cl)c1Cc1ccc(S(C)(=O)=O)cc1 (single isomer, unassigned) [Example 54C] | UniProtKB P51449 | 93% |
| CCN(CC)c1nc2ccc(C(O)(c3ccc(Cl)cc3)c3cncn3C)cc2c(Cl)c1Cc1ccc(-n2cccn2)cc1 (single isomer, unassigned) [Example 75B] | UniProtKB P51449 | 39% |
| COc1nc2ccc(C(O)(c3ccc(C)nc3C)c3cnnn3C)cc2c(Cl)c1Cc1ccc(C(F)(F)F)cc1 (single isomer, unassigned) [Example 77C] | UniProtKB P51449 | 100% |

Next, consider the following molecule.
RORγt reporter Assay, % inhibition @ 6 μM for COc1nc2ccc(C(O)(c3ccc(Cl)cc3)c3cncn3C)cc2c(Cl)c1Cc1cc2ccccc2s1 (single isomer, unassigned) [Example 36B] ?
62%

====

Test system: IL-17 production by CD4 T cells
run.description: Human Th17 assay (IL-17 production by CD4 T cells under Th17 differentiation)
Format: cell-based
condition.summary: Homo sapiens, CD4+ T, 72 h, human CD4+ T cells, IL-17 after 3 days; read-out: Human Th17 Assay, IC50 μM
measured.metric: IC50 (µM)
Express it in µM; write the number only.

| compound | assayed.system | IC50 [µM] |
| --- | --- | --- |
| CCN(CC)c1nc2ccc(C(O)(c3ccc(C(F)(F)F)nc3)c3cncn3C)cc2c(C#N)c1Cc1ccc(-n2cccn2)cc1 (single isomer, unassigned) [Example 74B] | IL-17 production by CD4 T cells | 0.091 |
| OC(c1cccnc1)(c1cccc(Cl)c1)c1ccc2nc(Cl)c(Cc3cccs3)c(Cl)c2c1 (centres unmarked) [Example 32] | IL-17 production by CD4 T cells | 1.8 |
| COc1nc2ccc(C(O)(c3sc(C)nc3C)c3cnnn3C)cc2c(Cl)c1Cc1ccc(C(F)(F)F)cc1 (centres unmarked) [Example 79C] | IL-17 production by CD4 T cells | 0.0015 |

Could you now consider this next compound?
Lookup: IC50 / IL-17 production by CD4 T cells / COc1ccc(C(O)(c2ccc3nc(OC)c(Cc4ccc(-n5cccn5)cc4)c(Cl)c3c2)c2cncn2C)cn1 (centres unmarked) [Example 22]
0.016

====

Reported inhibition at 6 µM values for a set of compounds
assayed.system: human RORγt LBD (Homo sapiens (Human))
run.description: RORγt reporter assay (GAL4-RORγt LBD luciferase in HEK293T cells)
Format: cell-based
condition.summary: HEK-293T, read-out: RORγt reporter Assay, % inhibition @ 6 μM, HEK293T cells, 6 μM
The answer is to be given in %; state only the numeric part.

Solved entries (count: 8):
| compound | assayed.system | inhibition at 6 µM (%) |
| --- | --- | --- |
| COc1nc2c(F)cc(C(O)(c3ccc(C(F)(F)F)nc3)c3cncn3C)cc2c(Cl)c1Cc1ccc(-n2cccn2)cc1 (single isomer, unassigned) [Example 58B] | human RORγt LBD (Homo sapiens (Human)) | 103 |
| COc1nc2c(OC)cc(C(O)(c3ccc(C(F)(F)F)nc3)c3cncn3C)cc2c(Cl)c1Cc1ccc(-n2cccn2)cc1 (single isomer, unassigned) [Example 59B] | human RORγt LBD (Homo sapiens (Human)) | 106 |
| COc1ccc(C(O)(c2ccc3nc(OC)c(Cc4ccc(-n5cccn5)cc4)c(Cl)c3c2)c2cncn2C)cn1 (stereo not shown) | human RORγt LBD (Homo sapiens (Human)) | 96 |
| OC(c1cccnc1)(c1cccc(Cl)c1)c1ccc2nc(Cl)c(Cc3cccc(Cl)c3)c(Cl)c2c1 (stereo not shown) | human RORγt LBD (Homo sapiens (Human)) | 46 |
| COc1nc2c(C)cc(C(O)(c3ccc(C(F)(F)F)nc3)c3cncn3C)cc2c(Cl)c1Cc1ccc(-n2cccn2)cc1 (single isomer, unassigned) [Example 29B] | human RORγt LBD (Homo sapiens (Human)) | 102 |
| Cc1ccc(C(O)(c2ccc3nc(C#N)c(Cc4ccc(C(F)(F)F)cc4)c(C#N)c3c2)c2cnnn2C)c(C)n1 (single isomer, unassigned) [Example 88B] | human RORγt LBD (Homo sapiens (Human)) | 96 |
| COc1nc2ccc(C(O)(c3ccc(Cl)cc3)c3cncn3C)cc2c(Cl)c1Cc1cc2ccccc2s1 (stereo not shown) [Example 36A] | human RORγt LBD (Homo sapiens (Human)) | 98 |
| CCOc1nc2ccc(C(O)(c3ccc(Cl)cc3)c3cncn3C)cc2c(Cl)c1Cc1ccccc1 (stereo not shown) | human RORγt LBD (Homo sapiens (Human)) | 74 |

For COc1nc2ccc(C(O)(c3ccc(C#N)cc3)c3cncn3C)cc2c(C#N)c1Cc1ccc(-n2cccn2)cc1 (single isomer, unassigned) [Example 76B] , what is its reported inhibition at 6 µM?
102

I would be grateful if you could share the reported inhibition at 6 µM for COc1ccc(C(O)(c2ccc3nc(OC)c(Cc4ccc(-n5cccn5)cc4)c(Cl)c3c2)c2cncs2)cn1 (stereo not shown) [Example 20A] .
101

Quick one: inhibition at 6 µM of COc1nc2ccc(C(O)(c3cnc(C)n3C)c3cnc(C)n3C)cc2c(Cl)c1Cc1ccc(C(F)(F)F)cc1 ?
87

Value lookup for inhibition at 6 µM; key = OC(c1cccnc1)(c1cccc(Cl)c1)c1ccc2nc(Cl)c(Cc3ccc(-n4cccn4)cc3)c(Cl)c2c1 (stereo not shown)
117

Which inhibition at 6 µM reading was recorded for the compound COc1nc2ccc(C(O)(c3cnnn3C)C3CN(C(C)=O)C3)cc2c(Cl)c1Cc1ccc(C(F)(F)F)cc1 (racemic) [Example 97A] ?
100
